B1: Tudor domain-containing protein 3, residues 554 to 611; numbered along this chain, Q9H7E2 (parent)
chain: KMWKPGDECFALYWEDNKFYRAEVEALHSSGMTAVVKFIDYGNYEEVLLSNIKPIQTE

Variants of: B1
Test: abundance fitness (aPCA) (normalised: wild type 0, dead -1); higher = more abundant; growth selection in yeast, the domain comes from the species named
Conditions: Homo sapiens
Classify on abundance fitness using bin 1 = under -0.3, bin 2 = from -0.3 up to -0.1, bin 3 = -0.1 and over

Completed entries (count: 8):
1) V47R ... bin 1
2) E25L ... bin 3
3) L27E ... bin 1
4) G31L ... bin 2
5) T33D ... bin 1
6) W3F ... bin 3
7) G31C ... bin 2
8) K1E ... bin 2

# input Bin this entry: N51S
# output bin 2

# input Bin this entry: E58R
# output bin 2

The values you see were collected from the Human Domainome abundance scans (Beltran et al. 2025).
